B1: WW domain-binding protein 4, residues 8 to 43; numbered along this chain, O75554 (parent)
chain: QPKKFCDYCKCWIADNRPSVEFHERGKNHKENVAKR

- Variants of: B1
- EXPERIMENTAL_DETAILS: abundance fitness (aPCA) (normalised: wild type 0, dead -1); higher = more abundant; growth selection in yeast, the domain comes from the species named
- CONDITION_NOTES: Homo sapiens
Binning of abundance fitness into classes: b0: < -0.4; b1: ≥ -0.4 and < -0.1; b2: ≥ -0.1

1. Y8R : b1
2. D15H : b1
3. N16G : b2
4. K4D : b0
5. C9K : b0
6. S19Q : b1
7. K4A : b1
8. F22L : b2
9. D15V : b1
10. F5Q : b1
11. N16F : b1
12. Q1Y : b0
13. Y8T : b2
14. V20G : b1
15. C11F : b0
16. D15A : b1
17. Q1M : b1
18. R17H : b1
19. H23T : b0
20. H29K : b0
21. R17A : b2
22. N32L : b1
23. C9A : b0
24. R36K : b2
25. R17Q : b2
26. K27D : b1
27. E24D : b1
28. V20H : b2
29. E21D : b1
30. N32K : b1
31. V33A : b2
32. C6L : b0
33. K27G : b2
34. K27M : b1
35. E24W : b0
36. P2D : b2
37. E24T : b0
38. K10P : b0
39. A34G : b2
40. K10M : b1
41. F5N : b1
42. S19K : b1
43. S19L : b0
